# Tested on: hTERT-HME1 cells carrying EGFR (delE746-A750) KI
# method_description: Drug assay: cell viability by ATP content (CellTiter-Glo, 96 h), KI versus parental cells; ΔKI pharmarray analysis
measure_name: ΔKI EGFR

| molecule | recorded_measurement |
| --- | --- |
| C=CCNC1=C2C[C@@H](C)C[C@H](OC)[C@H](O)[C@@H](C)/C=C(\C)[C@H](OC(N)=O)[C@@H](OC)/C=C\C=C(/C)C(=O)NC(=CC1=O)C2=O [17-AAG, 17-Allylamino geldanamycin] | −11.7 |
| O=C1CCC(N2C(=O)c3ccccc3C2=O)C(=O)N1 (centres unmarked) [OGC-065] | 0 |
| COC(=O)C1=CC[C@@]23CC[C@@H]([C@@](C)(/C=C/C=C(\C)C(=O)O)OC2=O)[C@@]3(OC(C)=O)CC1 [Pseudolaric Acid B] | 0 |
| CCCCC/C=C\C/C=C\C/C=C\C/C=C\CCCC(=O)Nc1ccc(O)cc1 [AM404] | 0 |
| COc1ccc(-c2cc(=O)c3c(O)c(OC)c(O)cc3o2)cc1OC [Eupatiline] | 0 |
